A collection of compounds and their measured growth
# Test system: UO-31 renal
# assay explanation: NCI-60 one-dose screen, 48 h (100 = growth as untreated, 0 = no growth, -100 = all killed)
# measurement parameters: 10 µM unless noted
About 83,000 compounds went through this panel and 20% of them were active in at least one assay; those are over-represented in the sample as a whole. Activity calls are given as the source filed them. How the source made its calls: active means growth percent below 10; inactive means the rest.

Solved cases (5 shown):
> print(dat)
                                chem.smiles  property.label       assay.value
1  COc1cc(CCNc2nc3cc(N)cc(N)c3nc2-c2ccccc2)cc(OC)c1          growth    39% (inactive)
2  Nc1ncc(C#Cc2cncc(NC(=O)c3cccc(C(F)(F)F)c3)c2)c2cccnc12          growth  33.7% (inactive)
3    COc1ccc(-c2cnc(N)nc2-c2ccc(OC)cc2O)cc1          growth  70.2% (inactive)
4  CN1CCN(c2c(F)cc(NC3=C(Cl)C(=O)c4ncccc4C3=O)cc2F)CC1          growth  34.3% (inactive)
5      CCN(CCNc1cc(OC)cc2cccnc12)CCc1ccccc1          growth  70.8% (inactive)

Now consider a different compound.
# input // returns reported growth for input `Nc1nnc2cc(Cl)ccc2n1`
# output 89.8% (inactive)

* * *

# Tested on: CAKI-1 renal
# assay explanation: NCI-60 one-dose screen, 48 h (100 = growth as untreated, 0 = no growth, -100 = all killed)
# measurement parameters: 10 µM unless noted
The panel holds about 83,000 compounds, 20% with a hit somewhere; the sample as a whole holds those more often. Active and inactive are the calls of the source. How the source made its calls: active means growth percent below 10; inactive means the rest.
property label: growth

Solved cases (2 shown):
molecule	growth
COc1ccc(-c2cnc(N)nc2-c2ccc(OC)cc2O)cc1	86.5% (inactive)
CCN1C(=O)/C(=c2\sc3n(c2=O)NC2C(N=3)N(CC)C(=O)N2CC)c2ccccc21 (centres undefined)	42.1% (inactive)

# input // returns reported growth for input `O=S(=O)(NCCCNc1nccc(-c2c(-c3cccc(O)c3)nc3occn23)n1)c1ccc(Br)cc1`
# output 75.6% (inactive)

# input // returns reported growth for input `O=S(=O)(NCCCNc1nccc(-c2c(-c3cccc(O)c3)nc3occn23)n1)c1ccc(F)cc1`
# output 72.2% (inactive)

# input // returns reported growth for input `Cn1c(COC(=O)NCCN2CCOCC2)nc2c(N3CCOCC3)nc(-c3ccccc3)nc21`
# output -94.8% (active)

* * *

# System: ACHN renal
# assay explanation: NCI-60 one-dose screen, 48 h (100 = growth as untreated, 0 = no growth, -100 = all killed)
# measurement parameters: 10 µM unless noted
Compounds without any hit were thinned out: in the full panel of roughly 83,000, 20% have a hit.
Lab note: anything with growth at or over 50% counts as true (1); the rest go in false (0).

Please review the following examples before continuing.
> print(dat)
                                   compound  assigned.class
1  COc1ccc(C2CC(c3cccc(Nc4ccncc4)c3)=NN2c2cc(Cl)cc(Cl)c2)cc1 (stereo not given)        true (1)
2  Cc1c2c(cc[n+]1Cc1ccccc1)c1ccc(OCC3CCCCC3)cc1n2CC1CCCCC1       false (0)
3  COc1ccc(C(=O)/C=C/c2ccc(OCc3ccccc3)c(OC)c2)cc1OC        true (1)
4  CC1(C)CN(c2cnc(C(=O)Nc3cc(F)cc4cccnc34)cn2)CCN1       false (0)
5  CCN1C(=O)N(CC)C2NC(SC)=NC21 (stereo not given)        true (1)

Pending compound:
# input Is growth for `O=C(Nc1cccc(Cl)c1)Oc1c(Br)c(Br)c(Br)c(Br)c1Br` at or above 50%?
# output true (1)

These measurements were taken from PubChem BioAssay (NCI).
